- System: BRK;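 further: KINOMEscan kinase panel screen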
- Construct: gene PTK6
- ASSAY SETUP: concentration: 1 μM, replicates: in singlicate; n = 1
Labelling field: enter 1 if recorded %Inh is less than 20%. Enter 0 if it equals or exceeds that cut-off.

## Task Bench note: check whether COc1cccc(C(=O)Nc2cccc(Oc3ccc4nc(NC(=O)C5CC5)cn4n3)c2)c1 shows %Inh below 20%
## Result 0

## Task Bench note: check whether Cc1ccc(C(=O)Nc2ccc(Nc3ccnc4cc(-c5nccs5)ccc34)cc2O)cc1.Cl [GW494702] shows %Inh below 20%
## Result 0

## Task Bench note: check whether COc1cc(Nc2nccc(-c3c(-c4cccc(NC(=O)c5c(F)cccc5F)c4)nn4ccccc34)n2)cc(OC)c1OC [GSK323521] shows %Inh below 20%
## Result 0

## Task Bench note: check whether c1ccc(-c2n[nH]cc2Nc2ccnc3ccccc23)nc1 [GW694077] shows %Inh below 20%
## Result 1

## Task Bench note: check whether CNC(=O)c1ccccc1Nc1nc(Nc2ccc(N3CCOCC3)cc2)ncc1Cl.Cl [GSK1576028] shows %Inh below 20%
## Result 0

## Task Bench note: check whether CCS(=O)(=O)c1ccc(OC)c(Nc2nccc(-c3c(-c4cccc(NC(=O)c5c(F)cccc5F)c4)nn4ncccc34)n2)c1 [GSK326180] shows %Inh below 20%
## Result 0

## Task Bench note: check whether CC(C)c1nc(-c2cccc(NS(=O)(=O)c3c(F)cccc3F)c2F)c(-c2ccnc(Nc3ccc(N4CCOCC4)nc3)n2)s1 [GSK2008607] shows %Inh below 20%
## Result 0

## Task Bench note: check whether COC(=O)Nc1nc2cc(Oc3ccc(NC(=O)Nc4cc(C(F)(F)F)ccc4F)cn3)ccc2[nH]1.Cl.Cl [GW681170] shows %Inh below 20%
## Result 1

## Task Bench note: check whether CC(=O)Nc1nc2cnc(Nc3cc(NC(=O)c4cccc(C5(C#N)CC5)c4Cl)ccc3C)nc2s1 shows %Inh below 20%
## Result 0

## Task Bench note: check whether COCCOCCOc1cc2ncc3c4ccc(C#N)cc4[nH]c3c2cc1OC shows %Inh below 20%
## Result 1

## Task Bench note: check whether CN(C)S(=O)(=O)c1cc(-c2ccc3nccc(-c4cccc(S(N)(=O)=O)c4)c3c2)cnc1N [GSK1669921] shows %Inh below 20%
## Result 1

## Task Bench note: check whether NCCCC(NC(=O)c1cc(Br)c(-c2ccnc3[nH]ccc23)s1)c1ccccc1.O=C(O)C(F)(F)F.O=C(O)C(F)(F)F (stereo not shown) [GSK1287544] shows %Inh below 20%
## Result 1

## Task Bench note: check whether CC(C)(C)c1ccc2nccc(Nc3cccc(O)c3)c2c1 [GW856795] shows %Inh below 20%
## Result 0

## Task Bench note: check whether Fc1ccc(-c2ncn(C3CCNCC3)c2-c2ccnc(Oc3ccc(-c4ccccc4)cc3)n2)cc1 [SB-245391] shows %Inh below 20%
## Result 1
